Biological target: Adenosine receptor A2a (Rattus norvegicus)
Sequence (P30543 whole entry): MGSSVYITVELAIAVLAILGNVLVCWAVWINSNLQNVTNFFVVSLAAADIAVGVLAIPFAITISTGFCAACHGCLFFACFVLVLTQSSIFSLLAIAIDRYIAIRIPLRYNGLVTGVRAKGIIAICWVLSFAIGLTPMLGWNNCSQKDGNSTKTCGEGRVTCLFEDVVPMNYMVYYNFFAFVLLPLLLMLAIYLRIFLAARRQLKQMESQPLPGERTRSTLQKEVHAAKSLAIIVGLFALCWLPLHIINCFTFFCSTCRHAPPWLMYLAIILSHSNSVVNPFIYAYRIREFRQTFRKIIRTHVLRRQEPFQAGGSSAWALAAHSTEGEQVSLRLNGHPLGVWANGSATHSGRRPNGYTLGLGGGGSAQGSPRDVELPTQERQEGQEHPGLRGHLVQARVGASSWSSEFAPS
Assay: Displacement of [3H]MSX-2 from adenosine A2A receptor in rat brain striatum
Format: tissue-based
readout: Ki

**Query** Let me know recorded Ki for "CCCn1c(=O)c2c(nc3n2CCCN3CCC(=O)N2CCN(c3ccccc3)CC2)n(CCC)c1=O" , thanks.
**Result** > 10 µM

**Query** Let me know recorded Ki for "CCCn1c(=O)c2c(nc3n2CCCN3CC(=O)N2CCN(c3ccccc3)CC2)n(CCC)c1=O" , thanks.
**Result** > 10 µM

**Query** Let me know recorded Ki for "Cn1c(=O)c2c(nc3n2CCCN3CC(=O)N2CCN(c3ccc(Cl)cc3)CC2)n(C)c1=O" , thanks.
**Result** > 10 µM
